Reported TGI values follow for various compounds
Tested on: RXF-631 renal
assay: NCI tumour cell line growth inhibition, 48 h
readout-type: TGI

compound="CC(C)=CC(C(O)c1ccccc1)S(=O)(=O)c1nccn1C (stereo not drawn)" readout_type=TGI reported_value="> 100 µM"
compound=CCCCC#COP(=O)(OCC)OCC readout_type=TGI reported_value="> 100 µM"
compound=CC(=O)O/N=C/c1ncccc1CO readout_type=TGI reported_value="> 100 µM"

---

Tested on: SF-268 CNS
assay: NCI tumour cell line growth inhibition, 48 h; in the data active means GI50 below about 0.43 µM; inactive means the rest
Possible outcomes: active, inactive

compound=COC(=O)CCC/C=C\C[C@H]1C=CC(=O)/C1=C/C[C@@H](O)CCc1cccc(C(F)(F)F)c1 subject_of_test="SF-268 CNS" assigned_class=inactive
compound=COc1cc2nc(-c3ccc(C(F)(F)F)cc3)cc(OCCCN3CCOCC3)c2cc1OC subject_of_test="SF-268 CNS" assigned_class=inactive
compound=O=[N+]([O-])c1ccc2[nH]cc(-c3c4ccsc4cc4[nH]c5ccc([N+](=O)[O-])cc5c34)c2c1 subject_of_test="SF-268 CNS" assigned_class=inactive
compound=COc1cc2c(cc1OCc1ccccc1)N=C[C@@H]1C/C(=C/C(=O)NCCCN3C(=O)c4cccc5cccc(c45)C3=O)CN1C2=O subject_of_test="SF-268 CNS" assigned_class=active
compound=COc1ccc(/C=C/c2cc(OC)c(OC)c(OC)c2)cc1NC(=O)/C=C/c1ccc(F)cc1 subject_of_test="SF-268 CNS" assigned_class=inactive
compound=CC1=CC[C@@H]2CC[C@]3(C)[C@H](CC[C@@H]4[C@@]5(C)CCCNC(C)(C)[C@@H]5CC[C@]43C)[C@H]2[C@@H]1C subject_of_test="SF-268 CNS" assigned_class=inactive
compound=O=C1c2cc(Br)ccc2-c2c1c1ccc([N+](=O)[O-])cc1c(=O)n2CCCCl subject_of_test="SF-268 CNS" assigned_class=active
compound=CN1CCN(Cc2ccc(NC(=O)c3cncc(C#Cc4cnc(N)c5ccc(F)cc45)c3)cc2C(F)(F)F)CC1 subject_of_test="SF-268 CNS" assigned_class=inactive
compound=COc1cc(-c2cnn(C)c2)ccc1Nc1ncc2ccnc(N[C@@H](C)C(C)(C)C)c2n1 subject_of_test="SF-268 CNS" assigned_class=inactive
compound=COc1c/c(=C2/C=c3ccccc3=N2)[nH]/c1=C/c1[nH]c(C)cc1C subject_of_test="SF-268 CNS" assigned_class=active
compound="CC1=CSC2=NC(c3ccc(Cl)c(Cl)c3)=CC(c3ccc(Cl)cc3)N12 (stereo not drawn)" subject_of_test="SF-268 CNS" assigned_class=inactive
compound=CC(=O)Oc1cc(C)ccc1[C@]1(C)CC[C@H](C)/C1=C\Br subject_of_test="SF-268 CNS" assigned_class=inactive
compound=Cc1cc(/C=C2\SC(=Nc3ccccc3)N(C3CCCC3)C2=O)c(C)n1-c1ccc(Cl)cc1 subject_of_test="SF-268 CNS" assigned_class=inactive

---

Test system: U251 CNS
Possible outcomes: active, inactive

structure_notation=CCCCNc1nc(NC(C)(C)C)nc(NC(C)(C)C)n1 subject_of_test="U251 CNS" assigned_class=inactive
structure_notation=CC(C)c1ccc(Cc2cnc(NC(=O)c3cc(Br)cs3)s2)cc1 subject_of_test="U251 CNS" assigned_class=inactive
structure_notation=CCOc1ccc(/C=C/C(=O)c2ccccc2)cc1 subject_of_test="U251 CNS" assigned_class=inactive
structure_notation=COC(=O)CCC/C=C\C[C@H]1C=CC(=O)/C1=C/C[C@@H](O)CCc1cccc(C(F)(F)F)c1 subject_of_test="U251 CNS" assigned_class=inactive
structure_notation=COc1cc(OC)c(/C=C/c2ccc3ccccc3[n+]2C)c(OC)c1 subject_of_test="U251 CNS" assigned_class=active
structure_notation=Cc1cc(/C=C2\SC(=Nc3ccccc3)N(C3CCCC3)C2=O)c(C)n1-c1ccc(Cl)cc1 subject_of_test="U251 CNS" assigned_class=inactive
structure_notation=O=C1c2cc(Br)ccc2-c2c1c1ccc([N+](=O)[O-])cc1c(=O)n2CCCCl subject_of_test="U251 CNS" assigned_class=active
structure_notation=COc1ccc2c(c1)sc1nc(-c3ccccc3)c(-c3ccsc3)n12 subject_of_test="U251 CNS" assigned_class=inactive
